In Vitro Activity Compared to Native Peptide (%) vs. GLP-1 (relative titer from cAMP EC50) for assorted binders
target entity: human GLP-1 receptor (human, UniProt P43220 24-463)
assay remarks: cell-based or functional assay
Bridge positions count the residues as written; N and C are the ends. Square brackets hold non-standard residues; d marks the D form. Ends that are not written are not given here. Aib = CC(C)(N)C(=O)O
property measured: In Vitro Activity Compared to Native Peptide (%) vs. GLP-1 (relative titer from cAMP EC50)

1) H[Aib]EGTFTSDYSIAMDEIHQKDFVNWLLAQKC (lactam 16-20) [trigonal agonist of SEQ ID NO: 34]; 41.5%
2) Y[Aib]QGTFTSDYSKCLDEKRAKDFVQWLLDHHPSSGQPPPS (bridge 16-20; not fully specified (bridges); ends not checked) [trigonal agonist of SEQ ID NO: 25]; 15.1%
3) Y[Aib]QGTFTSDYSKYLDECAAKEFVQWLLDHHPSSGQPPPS (bridge 16-20; not fully specified (bridges)) [trigonal agonist of SEQ ID NO: 19]; 64.6%

Measured values drawn from patent US20230285583A1 for this set.
